# Serine/threonine-protein kinase Nek9 (Homo sapiens, UniProt Q8TD19): Kd values follow
# Sequence (Q8TD19 whole entry): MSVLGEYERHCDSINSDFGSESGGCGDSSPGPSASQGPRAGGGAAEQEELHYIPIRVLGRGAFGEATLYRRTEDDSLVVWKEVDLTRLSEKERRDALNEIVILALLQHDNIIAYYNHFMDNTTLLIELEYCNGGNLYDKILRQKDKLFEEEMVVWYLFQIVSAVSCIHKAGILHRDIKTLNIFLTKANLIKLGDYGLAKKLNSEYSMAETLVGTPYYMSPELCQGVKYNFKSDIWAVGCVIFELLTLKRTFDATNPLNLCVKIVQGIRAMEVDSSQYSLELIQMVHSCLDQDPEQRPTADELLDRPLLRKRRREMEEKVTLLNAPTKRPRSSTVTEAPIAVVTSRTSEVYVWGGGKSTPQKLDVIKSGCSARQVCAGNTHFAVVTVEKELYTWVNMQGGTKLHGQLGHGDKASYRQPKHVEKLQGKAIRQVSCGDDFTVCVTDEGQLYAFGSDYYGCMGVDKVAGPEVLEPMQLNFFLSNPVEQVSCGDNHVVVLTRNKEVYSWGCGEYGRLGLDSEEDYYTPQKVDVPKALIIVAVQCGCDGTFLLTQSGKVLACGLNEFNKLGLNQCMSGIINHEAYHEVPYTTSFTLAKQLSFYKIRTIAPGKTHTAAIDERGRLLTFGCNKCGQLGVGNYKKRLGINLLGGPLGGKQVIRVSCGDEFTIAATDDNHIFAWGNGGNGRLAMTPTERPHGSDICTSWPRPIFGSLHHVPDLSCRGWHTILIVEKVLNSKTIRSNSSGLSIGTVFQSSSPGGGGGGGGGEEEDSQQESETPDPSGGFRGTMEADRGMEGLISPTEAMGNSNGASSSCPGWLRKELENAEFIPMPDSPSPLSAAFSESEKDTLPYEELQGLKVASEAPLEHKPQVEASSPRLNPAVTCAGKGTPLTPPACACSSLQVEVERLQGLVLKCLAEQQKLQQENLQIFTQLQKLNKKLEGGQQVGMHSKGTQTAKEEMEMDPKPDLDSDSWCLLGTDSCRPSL
Active and inactive are the calls of the source.

>>> value("COc1cc2ncnc(Oc3cccc(NC(=O)Nc4cc(C(C)(C)C(F)(F)F)on4)c3)c2cc1OC")
"> 30 µM (inactive)"
>>> value("COc1cc(Nc2ncc3c(n2)-c2ccc(Cl)cc2C(c2c(F)cccc2OC)=NC3)ccc1C(=O)O")
"> 30 µM (inactive)"
>>> value("N#CC1(c2ccc(NC(=O)c3cccnc3NCc3ccncc3)cc2)CCCC1")
"> 30 µM (inactive)"
>>> value("Cc1cc(C(=O)NOCCO)c(Nc2ccc(I)cc2F)n(C)c1=O")
"> 30 µM (inactive)"

Now consider a different compound.
Task item: Specify reported Kd for the compound shown: O=c1[nH]ccc2cc(OC3CCNCC3)ccc12 [SAR-407899 FREE BASE]
Reply: > 30 µM (inactive)

====

# Target Or Test System: Uncharacterized protein FLJ45252 (Homo sapiens)
# Sequence (Q6ZSR9 whole entry): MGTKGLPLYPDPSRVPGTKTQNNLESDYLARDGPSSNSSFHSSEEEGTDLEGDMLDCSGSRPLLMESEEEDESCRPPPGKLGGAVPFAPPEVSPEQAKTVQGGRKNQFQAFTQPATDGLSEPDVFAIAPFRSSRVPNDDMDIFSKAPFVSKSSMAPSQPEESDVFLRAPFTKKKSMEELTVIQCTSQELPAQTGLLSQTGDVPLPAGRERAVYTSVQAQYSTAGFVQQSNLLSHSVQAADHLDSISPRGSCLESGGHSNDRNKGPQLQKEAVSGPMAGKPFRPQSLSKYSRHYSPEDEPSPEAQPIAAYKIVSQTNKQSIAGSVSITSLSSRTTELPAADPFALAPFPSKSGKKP
# Conditions: read-out: Kd apparent; k-562, colo 205, sk-n-be(2) and mv-4-11
Calls of active or inactive are those of the source. No stated cut-off is given here; in the data, actives have a measured Kd and inactives only a lower limit.
Measured Attribute: Kd

# count of solved cases: 4
>>> value("O=C(Nc1cc(C(F)(F)F)cc(C(F)(F)F)c1)c1cc(Cl)ccc1O")
"> 30 µM (inactive)"
>>> value("COCC(=O)NC/C=C/c1ccc2ncnc(Nc3ccc(Oc4ccc(C)nc4)c(C)c3)c2c1")
"> 30 µM (inactive)"
>>> value("C#Cc1cccc(Nc2ncnc3cc(OC)c(OCCCCCCC(=O)NO)cc23)c1")
"> 30 µM (inactive)"
>>> value("Cn1ncc(Cl)c1-c1cc(C(=O)N[C@H](CN)Cc2ccc(F)c(F)c2)oc1Cl")
"> 30 µM (inactive)"

Task item: Query Kd for `CCOc1cc2ncc(C#N)c(Nc3ccc(F)c(Cl)c3)c2cc1NC(=O)/C=C/CN(C)C`
Reply: > 30 µM (inactive)

Task item: Please supply the value of reported Kd for the item `Cc1cccc(-c2nn3c(c2-c2ccnc4ccc(C(N)=O)cc24)CCC3)n1`
Reply: > 30 µM (inactive)

Task item: Given `Cc1nc2cc(-c3nn(C(C)C)c4ncnc(N)c34)ccc2o1` , respond with its Kd.
Reply: > 30 µM (inactive)

Task item: Annotate the molecule `Cn1cnc2c(F)c(Nc3ccc(Br)cc3F)c(C(=O)NOCCO)cc21` with its measured Kd.
Reply: > 30 µM (inactive)

Task item: Retrieve Kd measured for `C[C@@H](NC(=O)c1ncnc(N)c1Cl)c1ncc(C(=O)Nc2cc(C(F)(F)F)c(Cl)cn2)s1` and print it.
Reply: > 30 µM (inactive)

Task item: Supply reported Kd belonging to this molecule: `C[C@@H](Oc1cc(C(=O)Nc2ccc(C(=O)N3CCN(C)CC3)cc2)nnc1N)c1c(Cl)ccc(F)c1Cl`
Reply: 3.36 µM (active)

Task item: Identify measured Kd associated with `CNC(=O)c1cccc2cc(Oc3ccnc4cc(OCC5(N)CC5)c(OC)cc34)ccc12`
Reply: > 30 µM (inactive)

====

Calls of active or inactive are those of the source.
Let's go through some recorded Kd values for UniProt O15197 together.
Sequence (O15197 whole entry): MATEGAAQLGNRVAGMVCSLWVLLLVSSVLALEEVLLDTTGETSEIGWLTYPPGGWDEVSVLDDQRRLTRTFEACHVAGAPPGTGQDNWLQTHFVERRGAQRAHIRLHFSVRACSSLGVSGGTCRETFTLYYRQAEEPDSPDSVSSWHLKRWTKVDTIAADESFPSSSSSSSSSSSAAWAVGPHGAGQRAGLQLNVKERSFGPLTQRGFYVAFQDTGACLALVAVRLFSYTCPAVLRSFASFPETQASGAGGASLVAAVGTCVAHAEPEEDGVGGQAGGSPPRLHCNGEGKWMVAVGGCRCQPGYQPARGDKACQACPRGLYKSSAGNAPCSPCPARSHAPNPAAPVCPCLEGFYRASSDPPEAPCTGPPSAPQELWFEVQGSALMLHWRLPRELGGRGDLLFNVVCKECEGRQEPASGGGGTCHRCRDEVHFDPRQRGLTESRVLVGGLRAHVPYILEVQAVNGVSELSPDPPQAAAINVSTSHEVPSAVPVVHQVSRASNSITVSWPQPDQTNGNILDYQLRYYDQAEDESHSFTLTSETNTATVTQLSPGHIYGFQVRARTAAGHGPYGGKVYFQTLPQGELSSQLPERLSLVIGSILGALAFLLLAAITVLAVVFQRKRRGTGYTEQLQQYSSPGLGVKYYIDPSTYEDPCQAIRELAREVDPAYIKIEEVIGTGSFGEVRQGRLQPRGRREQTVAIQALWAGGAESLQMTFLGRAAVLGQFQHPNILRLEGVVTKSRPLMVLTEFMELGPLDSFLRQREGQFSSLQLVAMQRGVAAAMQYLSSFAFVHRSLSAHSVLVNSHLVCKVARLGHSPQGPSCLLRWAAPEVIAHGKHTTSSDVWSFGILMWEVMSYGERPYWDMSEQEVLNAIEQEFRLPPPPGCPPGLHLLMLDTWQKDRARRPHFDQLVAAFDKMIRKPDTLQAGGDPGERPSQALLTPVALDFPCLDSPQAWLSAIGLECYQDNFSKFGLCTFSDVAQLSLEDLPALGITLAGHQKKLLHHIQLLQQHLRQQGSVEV

Would you please look over these solved cases?
>>> value("CO[C@H]1C[C@@H]2CC[C@@H](C)[C@@](O)(O2)C(=O)C(=O)N2CCCC[C@H]2C(=O)O[C@H]([C@H](C)C[C@@H]2CC[C@@H](OC(=O)C(C)(CO)CO)[C@H](OC)C2)CC(=O)[C@H](C)/C=C(\\C)[C@@H](O)[C@@H](OC)C(=O)[C@H](C)C[C@H](C)/C=C/C=C/C=C/1C [TEMSIROLIMUS]")
"> 30 µM (inactive)"
>>> value("Cc1nc(Nc2n[nH]c3c2CN(C(=O)N[C@H](CN(C)C)c2ccccc2)C3(C)C)c2sccc2n1 [PF-03758309]")
"> 30 µM (inactive)"
>>> value("Nc1ncnc2c1c(-c1cccc(OCc3ccccc3)c1)cn2[C@H]1C[C@@H](CN2CCC2)C1 [AEW-541]")
"> 30 µM (inactive)"
>>> value("COCc1c(-c2ccc(NC(=O)Nc3cc(C(F)(F)F)ccc3F)c(F)c2)c2c(N)ncnn2c1CN1CCOCC1")
"> 30 µM (inactive)"
>>> value("C=CC(=O)Nc1cc2c(Nc3ccc(F)c(Cl)c3)ncnc2cc1C#CC(C)(C)N1CCN(C)CC1 [AV-412 FREE BASE]")
"> 30 µM (inactive)"

Please turn your attention to the following entry.
Task item: Provide Kd value for the following compound: O=c1[nH]ccc2cc(OC3CCNCC3)ccc12 [SAR-407899 FREE BASE]
Reply: > 30 µM (inactive)
